Data credit: the array DNA melting data of Ke et al. (doi:10.1101/2024.01.08.574731)

experiment.description: melting temperature; fluorescence melt of hairpins on a sequencing array, two-state fit, raised by 9.35 °C to match UV melts
details: sodium 0.088 M
quantity: Tm (°C)
// units = °C; emit number, no label

Known Tm results, listed for orientation:
>>> assay_result("GTCGTAACGAAAGTTGAC (((..(((....))))))")
35.8
>>> assay_result("GCAGTCCGAAAGGATGC (((.(((....))))))")
52.3
>>> assay_result("GATCATGGTAATGATC ((((((....))))))")
56.2
>>> assay_result("GAATTGACGAAAGTCTTC (((..(((....))))))")
29.6
>>> assay_result("GCAAAGCGAAAGCTGCGC ((..(((....)))..))")
64.3
>>> assay_result("GGCAAGGGAAACCTTGTC (.(((((....))))).)")
50.6
>>> assay_result("GTGTCGGGAAACTGACGC (.(((.(....).))).)")
45.5
>>> assay_result("GCCCTGCGAAAGCATTGC ((..(((....)))..))")
29.3

# input Give Tm for the following sequence: GCGAACTTTCGC ((((....))))
# output 51.1

# input Give Tm for the following sequence: GCGAGAAATCGC ((((....))))
# output 52.5

# input Give Tm for the following sequence: GATCGTGGATACGATC ((((((....))))))
# output 60.7

# input Give Tm for the following sequence: GCTAACGAAAGTTTGAGC ((((((....)))..)))
# output 32.6

---

Listing of recorded Tm by entry.
experiment.description: melting temperature; fluorescence melt of hairpins on a sequencing array, two-state fit, raised by 9.35 °C to match UV melts
details: sodium 0.088 M
// units = °C; emit number, no label

Known Tm results, listed for orientation:
>>> assay_result("GCCGTGCGAAAGCGCTGC ((.(.((....)).).))")
49
>>> assay_result("GGTCGCGAAAGCGCCACC ((((((....)))..)))")
47.8
>>> assay_result("GATCAGGCGGCTGATC ((((((....))))))")
53.2
>>> assay_result("GAAGGTGGAAACACCCTC ((.((((....)))).))")
33.8
>>> assay_result("CGTTGCGGAAACGCCACG (((.(((....))).)))")
49.5
>>> assay_result("GCACCAACGAAAGTTTGC (((..(((....))))))")
27.9
>>> assay_result("GATCCCAAGAGGGATC ((((((....))))))")
60.8
>>> assay_result("CGACCCGGAAACGGCTCG (((.(((....))).)))")
40.1

# input Give Tm for the following sequence: TCCGTGAAAACGGA (((((....)))))
# output 53.8

# input Give Tm for the following sequence: GACTTACGAAAGTAGGTC (((.(((....))).)))
# output 49.3

# input Give Tm for the following sequence: GGAACCGAAAGGTACTCC ((((((....)))..)))
# output 33.3

# input Give Tm for the following sequence: GTCAAGGCGAAAGCCGAC (((..(((....))))))
# output 48.1

---

experiment.description: folding enthalpy; higher = less favourable; fluorescence melt of hairpins on a sequencing array, two-state fit
details: sodium 0.088 M
Listing of recorded folding enthalpy by entry.
Report as: number unit

>>> assay_result("GTACAGCCGAAAGGCTAC (((..(((....))))))")
"-7.38 kcal/mol"
>>> assay_result("GCAAGGCGAAAGCGTTGC ((((.((....)).))))")
"-33.1 kcal/mol"
>>> assay_result("GATCGCCTCGCGATC ((((((...))))))")
"-30.2 kcal/mol"
>>> assay_result("GATGTCCGAAAGGATATC (((.(((....))).)))")
"-35.6 kcal/mol"
>>> assay_result("GCGAGATTCGC ((((...))))")
"-17.1 kcal/mol"

Here is the next item to consider.
# input Give folding enthalpy for the following sequence: GCTGAGCGAAAGCGCTGC ((.(.((....)).).))
# output -16.1 kcal/mol

---

experiment.description: melting temperature; fluorescence melt of hairpins on a sequencing array, two-state fit, raised by 9.35 °C to match UV melts
details: sodium 0.088 M
Listing of recorded Tm by entry.
// units = °C; emit number, no label

Known Tm results, listed for orientation:
>>> assay_result("GATCTCTTAGGAGATC ((((((....))))))")
54.2
>>> assay_result("GGTAGCGAAAGCTGACC ((((((....))).)))")
49.7
>>> assay_result("GCTCTGCGAAAGCTTAGC (((..((....))..)))")
44.2
>>> assay_result("GTGCTCGAAAGAGACCAC ((((((....)))..)))")
34.4
>>> assay_result("TTTACGAAAGTAAA (((((....)))))")
42.7

Here is the next item to consider.
# input Give Tm for the following sequence: GTCTAAGCGAAAGCTGAC (((..(((....))))))
# output 43.1

---

experiment.description: melting temperature; fluorescence melt of hairpins on a sequencing array, two-state fit, raised by 9.35 °C to match UV melts
details: sodium 0.088 M
Classes are defined on Tm with ranges low end: < 40 °C; middle: ≥ 40 °C and < 50 °C; high end: ≥ 50 °C

>>> label_value("GCCAGCGAAAGCTGAGGC ((((((....)))..)))")
"high end"

# input Sort into band: GGTGGAGAAATCCACC ((((((....))))))
# output high end

# input Sort into band: GCGGCTATCCGC ((((....))))
# output high end

# input Sort into band: GAATTGGGAAACTAATTC (((((.(....).)))))
# output low end

# input Sort into band: GATCACGTAAGTGATC ((((((....))))))
# output high end

# input Sort into band: GATCAGCCAGCTGATC ((((((....))))))
# output high end

# input Sort into band: GATCCCAATGGGGATC ((((((....))))))
# output high end

---

experiment.description: melting temperature; fluorescence melt of hairpins on a sequencing array, two-state fit, raised by 9.35 °C to match UV melts
details: sodium 0.088 M
Listing of recorded Tm by entry.
// units = °C; emit number, no label

Known Tm results, listed for orientation:
>>> assay_result("GGCAGCGGAAACGCCGCC (((.(((....))).)))")
61.5
>>> assay_result("GACCCTCCGAAAGGAGTC (((..(((....))))))")
23.4
>>> assay_result("GAACCTGGAAACAGGTTC (((((((....)))))))")
65.5
>>> assay_result("GTGTTCGAAAGAAAGCAC ((((((....)))..)))")
27.5
>>> assay_result("GCTTTCGAAAGAAATAGC ((((((....)))..)))")
36.8

# input Give Tm for the following sequence: AATACGAAAGTATT (((((....)))))
# output 44.8

# input Give Tm for the following sequence: GATCAACCGGTTGATC ((((((....))))))
# output 55.9

---

experiment.description: folding enthalpy; higher = less favourable; fluorescence melt of hairpins on a sequencing array, two-state fit
details: sodium 0.088 M
Listing of recorded folding enthalpy by entry.

Known folding enthalpy results, listed for orientation:
>>> assay_result("GGAGGTGGAAACGCCTCC (((((.(....).)))))")
"-50 kcal/mol"
>>> assay_result("GCGTACGAAAGTACCGC ((((((....))).)))")
"-22.2 kcal/mol"
>>> assay_result("GCCCCCGAAAGGGTAGGC ((((((....)))..)))")
"-23.3 kcal/mol"
>>> assay_result("GCTGTGCGAAAGCTCTGC ((.(.((....)).).))")
"-22.1 kcal/mol"

# input Give folding enthalpy for the following sequence: GTGACAACGAAAGTTCAC (((..(((....))))))
# output -11.1 kcal/mol

# input Give folding enthalpy for the following sequence: GATGCCGAAAGGCCAATC ((((((....)))..)))
# output -8.85 kcal/mol

# input Give folding enthalpy for the following sequence: GGTTGGGAAACCAACC ((((((....))))))
# output -42.9 kcal/mol

# input Give folding enthalpy for the following sequence: GCATTCGAAAGAAGGTGC ((((((....)))..)))
# output -22.2 kcal/mol

# input Give folding enthalpy for the following sequence: GCCGACGGAAACGTTGGC (((.(((....))).)))
# output -45.5 kcal/mol

# input Give folding enthalpy for the following sequence: GAACGTGGAAACACGCTC ((.((((....)))).))
# output -18.2 kcal/mol

# input Give folding enthalpy for the following sequence: GTGAGACGAAAGTCGCAC (((.(((....))).)))
# output -31.9 kcal/mol

# input Give folding enthalpy for the following sequence: GATCCAGCCTTGGATC ((((((....))))))
# output -37.2 kcal/mol
